biological target: HIV-1 protease (Human immunodeficiency virus type 1 group M subtype B); construct: The protease (or proteinase), consisting of only 99 amino acids, is among the smallest enzymes known; test: In vitro HIV protease inhibitory assay (HIV Protease FITC Assay); format: biochemical; details: HIV-1 Dose 10.000 uM; read-out: HIV-1 Protease % Inhib
Tick 1.0 if inhibition at 10 µM is 80% or greater. Tick 0.0 if inhibition at 10 µM is less than 80%.

>>> df
                                    molecule                           target_of_assay  label_class
 0  CCC(C1=C(O)CC(CCc2ccccc2)(CC(C)C)OC1=O)c1ccccc1 (stereo not shown) [Example 234]  HIV-1 protease (Human immunodeficiency virus type 1 group M subtype B)          1.0
 1  CCC(c1cc(O)c(C(c2ccccc2)C2CC2)c(=O)o1)C(O)c1ccccc1 (stereo not shown) [Example 146]  HIV-1 protease (Human immunodeficiency virus type 1 group M subtype B)          1.0
 2  CCC(CC1CC1)c1cc(O)c(C(c2ccccc2)C2CC2)c(=O)o1 (stereo not shown) [Example 90]  HIV-1 protease (Human immunodeficiency virus type 1 group M subtype B)          1.0
 3  C=CC(c1ccccc1)C1C(=O)CC(C)(c2ccccc2)OC1=O (stereo not shown) [Example 34]  HIV-1 protease (Human immunodeficiency virus type 1 group M subtype B)          0.0
 4  CCC(CCC1CCCCC1)c1cc(O)c(C(c2ccccc2)C2CC2)c(=O)o1 (stereo not shown) [Example 95]  HIV-1 protease (Human immunodeficiency virus type 1 group M subtype B)          0.0
 5  CCC(c1ccccc1)c1c(O)cc(CCc2ccccc2)oc1=O (stereo not shown) [Example 3]  HIV-1 protease (Human immunodeficiency virus type 1 group M subtype B)          0.0
 6  C=CC(c1ccccc1)c1c(O)cc(CCc2ccccc2)oc1=O (stereo not shown) [Example 12]  HIV-1 protease (Human immunodeficiency virus type 1 group M subtype B)          0.0
 7  CCC1(CC)CC(=O)C(CCCc2ccccc2)C(=O)O1 (stereo not shown) [Example 27]  HIV-1 protease (Human immunodeficiency virus type 1 group M subtype B)          0.0
 8  CCC(Cc1ccccc1)c1cc(O)c(C(c2cccc(NC(=O)[C@H](C)NC(=O)OC(C)(C)C)c2)C2CC2)c(=O)o1 (stereo partly shown) [Example 221]  HIV-1 protease (Human immunodeficiency virus type 1 group M subtype B)          1.0
 9  CCCC1(CCCc2ccccc2)CC(O)=C(C(c2ccc(COCOC)s2)C2CC2)C(=O)O1 (stereo not shown) [Example 241]  HIV-1 protease (Human immunodeficiency virus type 1 group M subtype B)          1.0
10  COCCOCCCc1oc(=O)c(C(c2ccccc2)C2CC2)c(O)c1CCOCCOC (stereo not shown) [Example 103]  HIV-1 protease (Human immunodeficiency virus type 1 group M subtype B)          0.0
11  O=c1oc(CC(O)c2ccccc2Cl)cc(O)c1C(c1ccccc1)C1CC1 (stereo not shown) [Example 151]  HIV-1 protease (Human immunodeficiency virus type 1 group M subtype B)          0.0
12  O=c1oc(CC2CCCC2)cc(O)c1C(c1ccccc1)C1CC1 (stereo not shown) [Example 143]  HIV-1 protease (Human immunodeficiency virus type 1 group M subtype B)          1.0
13  CC(C)Cc1cc(O)c(C(c2ccccc2)C2CC2)c(=O)o1 (stereo not shown) [Example 75]  HIV-1 protease (Human immunodeficiency virus type 1 group M subtype B)          1.0
14  CCC(C1=C(O)CC(Cc2ccccc2)(Cc2ccccc2)OC1=O)c1ccccc1 (stereo not shown) [Example 120]  HIV-1 protease (Human immunodeficiency virus type 1 group M subtype B)          0.0
15  CCC(Cc1ccccc1)c1cc(O)c(C(c2ccccc2)C2CC2)c(=O)o1 (stereo not shown) [Example 86]  HIV-1 protease (Human immunodeficiency virus type 1 group M subtype B)          1.0
16  CCC(CCc1ccsc1)c1cc(O)c(C(c2ccccc2)C2CC2)c(=O)o1 (stereo not shown) [Example 71]  HIV-1 protease (Human immunodeficiency virus type 1 group M subtype B)          1.0
17  CC(C)CC1(CCc2ccccc2)CC(O)=C(C(/C=C/c2ccccc2)c2ccccc2)C(=O)O1 (stereo not shown) [Example 210]  HIV-1 protease (Human immunodeficiency virus type 1 group M subtype B)          0.0
18  O=C(CCn1ccc2ccccc21)Nc1cccc(C(c2c(O)cc(C(CC3CC3)CC3CC3)oc2=O)C2CC2)c1 (stereo not shown) [Example 39]  HIV-1 protease (Human immunodeficiency virus type 1 group M subtype B)          1.0
19  CCC(CCC1OCCCO1)c1cc(O)c(C(c2ccccc2)C2CC2)c(=O)o1 (stereo not shown) [Example 65]  HIV-1 protease (Human immunodeficiency virus type 1 group M subtype B)          1.0
20  O=c1oc(CCC(F)(F)F)cc(O)c1C(c1ccccc1)C1CC1 (stereo not shown) [Example 139]  HIV-1 protease (Human immunodeficiency virus type 1 group M subtype B)          0.0
21  O=c1oc(CCc2ccccc2)cc(O)c1C(c1ccccc1)C1CC1 (stereo not shown) [Example 24]  HIV-1 protease (Human immunodeficiency virus type 1 group M subtype B)          0.0
22  CCCC(CC1CCCOC1)c1cc(O)c(C(c2ccccc2)C2CC2)c(=O)o1 (stereo not shown) [Example 72]  HIV-1 protease (Human immunodeficiency virus type 1 group M subtype B)          1.0
23  CCC(CC(=O)N1CCOCC1)c1cc(O)c(C(c2ccccc2)C2CC2)c(=O)o1 (stereo not shown) [Example 69]  HIV-1 protease (Human immunodeficiency virus type 1 group M subtype B)          0.0
24  CCC(c1ccccc1)c1cc(O)c(C(CC)c2ccccc2)c(=O)o1 (stereo not shown) [Example 186]  HIV-1 protease (Human immunodeficiency virus type 1 group M subtype B)          0.0
25  O=c1oc(CCc2ccccc2)cc(O)c1C(C1CC1)C1CC1 [Example 82]  HIV-1 protease (Human immunodeficiency virus type 1 group M subtype B)          1.0
26  Cc1ccc(S(=O)(=O)Nc2cccc(C(c3c(O)cc(C(CC4CC4)CC4CCCOC4)oc3=O)C3CC3)c2)cc1 (stereo not shown) [Example 245]  HIV-1 protease (Human immunodeficiency virus type 1 group M subtype B)          1.0
27  CCC(C1=C(O)CC2(CCCC2)OC1=O)c1ccccc1 (stereo not shown) [Example 130]  HIV-1 protease (Human immunodeficiency virus type 1 group M subtype B)          0.0
